Measured values drawn from ChEMBL document CHEMBL1132248 for this set.

Experiment: The compound was tested for the increase in thermal melting of d(CGCGAATTCGCG)2.
Use Condition met when the recorded ΔTm is no lower than 9; use Condition not met when it is lower.

entry-smiles: N=C(N)c1ccc(OCCCCCOc2ccc(C(=N)N)cc2)cc1
class: Condition not met
//
entry-smiles: CC(C)/N=C(/N)c1ccc(-c2coc(-c3ccc(/C(N)=N\C(C)C)cc3)c2)cc1.Cl.Cl
class: Condition met
//
entry-smiles: Cl.Cl.N=C(NC1CC1)c1ccc(-c2coc(-c3ccc(C(=N)NC4CC4)cc3)c2)cc1
class: Condition met
//
entry-smiles: c1cc(-c2coc(-c3ccc(C4=NCCN4)cc3)c2)ccc1C1=NCCN1
class: Condition not met
//
entry-smiles: CC(C)C/N=C(/N)c1ccc(-c2coc(-c3ccc(/C(N)=N\CC(C)C)cc3)c2)cc1
class: Condition met
//
entry-smiles: Cc1oc(-c2ccc(C(=N)N)cc2)c(C)c1-c1ccc(C(=N)N)cc1.Cl.Cl
class: Condition not met
//
entry-smiles: Cl.Cl.N=C(NC1CCCC1)c1ccc(-c2coc(-c3ccc(C(=N)NC4CCCC4)cc3)c2)cc1
class: Condition met
//
entry-smiles: Cc1oc(-c2ccc(/C(N)=N\C(C)C)cc2)c(C)c1-c1ccc(/C(N)=N\C(C)C)cc1.Cl.Cl
class: Condition not met

###

System: Nucleic Acid
# Satisfied = ΔTm below 20 (exclusive); Not satisfied = ΔTm at/above 20

entry-smiles: c1cc(-c2coc(-c3ccc(C4=NCCN4)cc3)c2)ccc1C1=NCCN1
class: Satisfied

entry-smiles: CC(C)/N=C(/N)c1ccc(-c2coc(-c3ccc(/C(N)=N\C(C)C)cc3)c2)cc1.Cl.Cl
class: Satisfied

entry-smiles: Cl.Cl.N=C(N)c1ccc(-c2coc(-c3ccc(C(=N)N)cc3)c2)cc1
class: Satisfied

entry-smiles: Cc1oc(-c2ccc(/C(N)=N\C(C)C)cc2)c(C)c1-c1ccc(/C(N)=N\C(C)C)cc1.Cl.Cl
class: Satisfied

entry-smiles: Cc1oc(-c2ccc(C(=N)N)cc2)c(C)c1-c1ccc(C(=N)N)cc1.Cl.Cl
class: Satisfied

entry-smiles: Cl.Cl.N=C(NC1CC1)c1ccc(-c2coc(-c3ccc(C(=N)NC4CC4)cc3)c2)cc1
class: Not satisfied
